Cited source for all entries: patent US9371331B2

- target: Y641N EZH2 (Homo sapiens, UniProt Q15910, Y641N)
- Sequence (Q15910 whole entry Y641N): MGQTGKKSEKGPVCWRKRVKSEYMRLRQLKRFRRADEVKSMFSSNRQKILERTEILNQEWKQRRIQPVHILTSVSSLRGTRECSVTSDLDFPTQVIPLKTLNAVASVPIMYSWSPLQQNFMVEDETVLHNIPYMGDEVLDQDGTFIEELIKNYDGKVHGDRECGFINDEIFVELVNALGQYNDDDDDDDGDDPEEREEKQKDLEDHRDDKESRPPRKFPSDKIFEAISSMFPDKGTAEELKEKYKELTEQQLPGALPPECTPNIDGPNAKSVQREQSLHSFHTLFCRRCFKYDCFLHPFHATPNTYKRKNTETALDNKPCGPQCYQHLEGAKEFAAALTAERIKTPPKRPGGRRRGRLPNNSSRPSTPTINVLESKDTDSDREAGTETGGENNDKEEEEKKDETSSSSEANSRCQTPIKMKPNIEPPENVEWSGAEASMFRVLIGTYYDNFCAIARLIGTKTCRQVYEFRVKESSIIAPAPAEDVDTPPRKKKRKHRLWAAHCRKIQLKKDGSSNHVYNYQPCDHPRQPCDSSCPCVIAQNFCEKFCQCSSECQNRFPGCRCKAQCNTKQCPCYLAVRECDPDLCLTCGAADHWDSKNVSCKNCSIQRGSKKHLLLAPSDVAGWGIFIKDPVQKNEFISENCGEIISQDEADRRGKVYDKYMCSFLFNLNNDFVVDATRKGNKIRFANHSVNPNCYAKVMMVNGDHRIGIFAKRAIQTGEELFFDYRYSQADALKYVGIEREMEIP
- Sequence (O75530 whole entry partner): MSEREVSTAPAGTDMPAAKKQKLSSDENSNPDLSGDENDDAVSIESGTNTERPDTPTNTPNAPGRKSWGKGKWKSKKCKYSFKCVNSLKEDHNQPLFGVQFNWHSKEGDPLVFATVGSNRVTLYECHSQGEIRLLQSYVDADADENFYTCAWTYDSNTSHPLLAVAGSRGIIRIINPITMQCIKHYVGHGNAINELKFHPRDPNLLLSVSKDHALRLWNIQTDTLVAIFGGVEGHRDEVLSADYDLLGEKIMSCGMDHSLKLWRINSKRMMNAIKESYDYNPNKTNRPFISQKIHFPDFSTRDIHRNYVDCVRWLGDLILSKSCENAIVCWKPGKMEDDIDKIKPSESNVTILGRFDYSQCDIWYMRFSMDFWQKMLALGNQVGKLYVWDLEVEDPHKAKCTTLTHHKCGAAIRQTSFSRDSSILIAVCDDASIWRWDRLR
- Sequence (Q15022 whole entry partner): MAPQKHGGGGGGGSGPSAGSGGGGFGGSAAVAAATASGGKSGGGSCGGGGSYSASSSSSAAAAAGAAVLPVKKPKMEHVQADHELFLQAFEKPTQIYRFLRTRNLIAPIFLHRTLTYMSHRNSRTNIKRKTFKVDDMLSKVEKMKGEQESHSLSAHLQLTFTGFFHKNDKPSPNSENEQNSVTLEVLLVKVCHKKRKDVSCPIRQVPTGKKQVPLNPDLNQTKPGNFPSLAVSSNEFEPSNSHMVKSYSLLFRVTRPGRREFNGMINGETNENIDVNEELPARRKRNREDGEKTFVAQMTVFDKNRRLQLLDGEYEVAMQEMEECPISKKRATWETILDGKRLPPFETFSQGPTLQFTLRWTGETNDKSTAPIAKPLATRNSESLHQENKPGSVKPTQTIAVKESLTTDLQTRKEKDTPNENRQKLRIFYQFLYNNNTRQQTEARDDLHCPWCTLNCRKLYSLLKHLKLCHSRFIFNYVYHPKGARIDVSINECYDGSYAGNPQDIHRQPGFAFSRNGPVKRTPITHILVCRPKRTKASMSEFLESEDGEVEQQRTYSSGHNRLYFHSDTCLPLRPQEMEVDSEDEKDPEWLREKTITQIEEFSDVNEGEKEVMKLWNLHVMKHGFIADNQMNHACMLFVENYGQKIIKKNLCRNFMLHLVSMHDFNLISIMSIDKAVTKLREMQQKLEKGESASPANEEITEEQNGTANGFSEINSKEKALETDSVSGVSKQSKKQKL
- assay.method.text: Y641N EZH2 assay: as EZH2 assay, with reconstituted H3K27Me2 oligonucleosomes as substrate
- Format: biochemical
- reported.conditions: Y641N EZH2 IC50, Y641N mutant EZH2, H3K27Me2 oligonucleosome substrate
pIC50: −log10 of the molar value. Where a name gives a salt, the structure may show the parent alone.
experimental.readout: pIC50

query: Under Y641N EZH2 (Homo sapiens, UniProt Q15910, Y641N): pIC50 value of Cc1cc(C)c(CNC(=O)c2c(C)n(C(C)C3CC3)c3ncccc23)c(=O)[nH]1 (single isomer, unassigned) [Compound 252] ?
result: 6.00 to 7.00

query: And the next one, Cc1cc(C)c(CNC(=O)c2c(C)n(C(C)c3ccn(C)c(=O)c3)c3ccccc23)c(=O)[nH]1 (racemic) ?
result: 6.00 to 7.00

query: Param item: COc1cc(C)[nH]c(=O)c1CNC(=O)c1c(C)n(C(C)C2CCCN(S(C)(=O)=O)C2)c2ccccc12 (centres unmarked)
result: > 7.00

query: Same again, this time with COc1cncc(C(C)n2c(C)c(C(=O)NCc3c(C)cc(C)[nH]c3=O)c3cccnc32)c1 (racemic)
result: 5.00 to 6.00

query: Cc1cc(C)c(CNC(=O)c2c(C)n(C(C)c3cccc(S(C)(=O)=O)c3)c3ccccc23)c(=O)[nH]1 (racemic) ?
result: 6.00 to 7.00

query: Also need Cc1cc(C)c(CNC(=O)c2c(C)n(C(C)c3cccc(C(N)=O)c3)c3ccccc23)c(=O)[nH]1 (single isomer, unassigned) [Compound 226] , thanks.
result: 5.00 to 6.00

query: Check Cc1cc(C)c(CNC(=O)c2c(C)n(C(C)c3ccccc3C#N)c3ccccc23)c(=O)[nH]1 (racemic) too.
result: 5.00 to 6.00

query: Same read-out for COc1cc(C)[nH]c(=O)c1CNC(=O)c1c(C)n(C(C)CC#N)c2ncccc12 (racemic) ?
result: 6.00 to 7.00

query: Item: COCC(C)n1c(C)c(C(=O)NCc2c(C)cc(C)[nH]c2=O)c2ccncc21 (racemic)
result: 6.00 to 7.00

query: Another: COc1cc(C)[nH]c(=O)c1CNC(=O)c1c(C)n(C(C)C(C)OC)c2ccccc12 (single isomer, unassigned) [Compound 307]
result: > 7.00

query: Now this one: Cc1cc(C)c(CNC(=O)c2c(C)n(CC3(C)COC3)c3ccccc23)c(=O)[nH]1
result: 6.00 to 7.00

query: Same for COc1cc(C)[nH]c(=O)c1CNC(=O)c1c(C)n(C(C)C2CCNCC2)c2ccccc12 (single isomer, unassigned) [Compound 326, hydrochloride]
result: > 7.00

query: Likewise for CCC(OC)C(C)n1c(C)c(C(=O)NCc2c(OC)cc(C)[nH]c2=O)c2ccccc21 (centres unmarked) ?
result: > 7.00

query: Another: Cc1cc(OC(F)F)c(CNC(=O)c2c(C)n(C(C)C3CCOCC3)c3ccccc23)c(=O)[nH]1 (single isomer, unassigned)
result: > 7.00

---

- target: Y641N EZH2 (Homo sapiens, UniProt Q15910, Y641N)
- assay.method.text: Y641N EZH2 assay: as EZH2 assay, with reconstituted H3K27Me2 oligonucleosomes as substrate
- Format: biochemical
- reported.conditions: Y641N EZH2 IC50, Y641N mutant EZH2, H3K27Me2 oligonucleosome substrate
experimental.readout: IC50

query: Please look up its IC50: COc1cc(C)[nH]c(=O)c1CNC(=O)c1c(C)n(C(C)C2CCNCC2)c2ncncc12 (racemic)
result: 0.1 to 1 µM

query: Similarly, CCC(c1ccccc1)n1c(C)c(C(=O)NCc2c(C)cc(C)[nH]c2=O)c2cccnc21 (racemic) ?
result: 0.1 to 1 µM

query: And then Cc1cc(C)c(CNC(=O)c2c(C)n(C(C)c3cccc(Br)c3)c3ccccc23)c(=O)[nH]1 (racemic) , what is it?
result: < 0.1 µM

query: Also Cc1cc(C)c(CNC(=O)c2c(C)n(C(C)c3ccccc3)c3cnccc23)c(=O)[nH]1 (single isomer, unassigned) [Compound 247] ?
result: < 0.1 µM

query: Next up: CCC(C)n1c(C)c(C(=O)NCc2c(C)cc(C)[nH]c2=O)c2cccnc21 (racemic) [Compound 185]
result: 1 to 10 µM

query: And for CCOc1cc(C)[nH]c(=O)c1CNC(=O)c1c(C)n(C(C)COC)c2ncccc12 (racemic) ?
result: 1 to 10 µM

query: Same again, this time with Cc1cc(C)c(CNC(=O)c2c(C)n([C@H](C)c3ccccc3)c3ncncc23)c(O)n1
result: 0.1 to 1 µM

---

Provide the recorded pIC50 for the entries that follow.
- target: EZH2 (rPRC2) (Homo sapiens, UniProt Q15910)
- Sequence (Q15910 whole entry): as the sequence (Q15910 whole entry Y641N) above, with N641Y counted along it
- Sequence (O75530 whole entry partner): as the sequence (O75530 whole entry partner) above
- Sequence (Q15022 whole entry partner): as the sequence (Q15022 whole entry partner) above
- assay.method.text: EZH2 assay: rPRC2, biotinylated oligonucleosomes, 3H SAM methyl transfer (FlashPlate scintillation)
- Type: biochemical
- reported.conditions: EZH2 IC50, wild-type EZH2 (rPRC2), biotinylated oligonucleosome substrate
- Method: Assays were carried out by mixing rPRC2 together with biotinylated oligonucleosome substrates in the presence of the radio-labeled enzyme co-factor, S-adenosyl-1-methionine (^3H SAM) (Perkin Elmer) and monitoring the enzymatically mediated transfer of tritiated methyl groups from ^3H SAM to histone lysine residues. […]
pIC50: −log10 of the molar value.

query: Quick one: pIC50 of Cc1cc(C)c(CNC(=O)c2c(C)n(C(C)c3cccc(C#N)c3)c3ccccc23)c(=O)[nH]1 (centres unmarked) [Compound 187] ?
result: > 7.00

query: Would you mind doing COc1cncc(C(C)n2c(C)c(C(=O)NCc3c(C)cc(C)[nH]c3=O)c3cccnc32)c1 (racemic) as well?
result: 6.00 to 7.00

query: Entry CC[C@@H](C)n1c(C)c(C(=O)NCc2c(C)cc(C)[nH]c2=O)c2cnc(Cl)nc21 please
result: 6.00 to 7.00

query: And the next one, COCC(C)n1c(C)c(C(=O)NCc2c(OC)cc(C)[nH]c2=O)c2cccnc21 (single isomer, unassigned) [Compound 257] ?
result: 6.00 to 7.00

query: Also, CCC(OC)C(C)n1c(C)c(C(=O)NCc2c(OC)cc(C)[nH]c2=O)c2ccccc21 (centres unmarked) please.
result: > 7.00

---

- target: EZH2 (rPRC2) (Homo sapiens)
- assay.method.text: EZH2 assay: rPRC2, biotinylated oligonucleosomes, 3H SAM methyl transfer (FlashPlate scintillation)
- Assay type: biochemical
- reported.conditions: EZH2 IC50, wild-type EZH2 (rPRC2), biotinylated oligonucleosome substrate
pIC50: −log10 of the molar value.
experimental.readout: pIC50

query: Request the reported pIC50 associated with Cc1cc(C)c(CNC(=O)c2c(C)n([C@H](C)c3ccccc3)c3nc(C(C)C)ncc23)c(O)n1
result: > 7.00

query: What do we get for COCC(C)n1c(C)c(C(=O)NCc2c(OC)cc(C)[nH]c2=O)c2ccc(C(F)(F)F)nc21 (racemic) ?
result: 6.00 to 7.00

query: Now the same for Cc1cc(C)c(CNC(=O)c2c(C)n(C(C)c3cccc(Cl)c3)c3ccccc23)c(=O)[nH]1 (racemic)
result: > 7.00

query: Then what about the compound COc1cc(C)[nH]c(=O)c1CNC(=O)c1c(C)n(C(C)C2CCCNC2)c2ccccc12 (stereo not shown) ?
result: > 7.00

query: What do you have for CCS(=O)(=O)C1(C(C)n2c(C)c(C(=O)NCc3c(OC)cc(C)[nH]c3=O)c3ccccc32)CCNCC1 (single isomer, unassigned) ?
result: > 7.00

query: Note, next up: COc1cc(C)[nH]c(=O)c1CNC(=O)c1c(C)n(C(C)C2CCN(CCO)CC2)c2ccccc12 (single isomer, unassigned)
result: > 7.00

query: Same thing, different compound: COCC(C)n1c(C)c(C(=O)NCc2c(OC)cc(C)[nH]c2=O)c2cc(F)ccc21 (racemic)
result: > 7.00

query: Entry COC(C)C(C)n1c(C)c(C(=O)NCc2c(C)cc(C)[nH]c2=O)c2ccc(S(C)(=O)=O)cc21 (stereo not shown) please
result: 6.00 to 7.00

query: Next up: Cc1cc(C)c(CNC(=O)c2c(C)n(C(C)c3cccc(C(N)=O)c3)c3ccccc23)c(=O)[nH]1 (single isomer, unassigned) [Compound 225]
result: > 7.00

query: Check Cc1cc(C)c(CNC(=O)c2c(C)n(CC3(C)COC3)c3ccccc23)c(=O)[nH]1 too.
result: 6.00 to 7.00

query: Thanks! And Cc1cc(C)c(CNC(=O)c2c(C)n([C@H](C)c3ccccc3)c3nc(Cl)ncc23)c(O)n1 ?
result: 6.00 to 7.00

query: Please give the result for COc1cc(C)[nH]c(=O)c1CNC(=O)c1c(C)n(C(C)CC#N)c2ncccc12 (racemic) too.
result: > 7.00

query: // query: COCC(C)n1c(C)c(C(=O)NCc2c(OC)cc(C)[nH]c2=O)c2ccccc21 (stereo not shown) [Compound 219]
result: > 7.00

query: And then COc1cc(C)[nH]c(=O)c1CNC(=O)c1c(C)n(C(C)C2CCOCC2)c2ncncc12 (single isomer, unassigned) , what is it?
result: > 7.00

query: Follow-up item: COc1cc(C)[nH]c(=O)c1CNC(=O)c1c(C)n(C(C)c2ccccc2)c2ccccc12 (single isomer, unassigned)
result: > 7.00

query: Repeat for the following compound: COc1nccc(C(C)n2c(C)c(C(=O)NCc3c(OC)cc(C)[nH]c3=O)c3cccnc32)n1 (racemic)
result: 6.00 to 7.00
